system: SK-OV-3 ovarian; assay: NCI-60 one-dose screen, 48 h (100 = growth as untreated, 0 = no growth, -100 = all killed); details: 10 µM unless noted
About 83,000 compounds went through this panel and 20% of them were active in at least one assay; those are over-represented in the sample as a whole.
assayMetric: growth (%)

compound=N#C/C(=C\c1cccc2c1OCO2)C(=O)Nc1sc2c(c1C#N)CCCC2 u=% value=98.5
compound=O=C(O)CC1CCN(c2ccc3nnc(Cl)n3n2)CC1 u=% value=96.2
compound=CC(C)=CCC[C@](C)(O)[C@H]1CC[C@]2(C)[C@@H]1CC[C@@H]1[C@@]3(C)CC[C@H](N)C(C)(C)[C@@H]3CC[C@]12C u=% value=104
compound=C/C(=N\NC(=O)/C=C/CC(=O)O)c1nnn(-c2ccc([N+](=O)[O-])cc2)c1C u=% value=106
compound=Cc1ccccc1N1CCN(C2=C(Cl)C(=O)c3ncccc3C2=O)CC1 u=% value=95.8
compound="Cc1[nH]c(C(=O)Nc2ccccc2OCc2cccc(C(=O)NC3CCNC3)c2)c(Cl)c1Cl (centres undefined)" u=% value=107
compound=C/C(=N/N)c1nnn(-c2ccc(Br)cc2)c1C u=% value=109
compound="CCOC(=O)C1=C(C)NC(C)=C(C(=O)OC(C)C)C1c1cccc(C#N)c1 (centres undefined)" u=% value=132
compound=CC(=C(c1ccc(OCCN2CCCC2)cc1)c1ccc(OCCN2CCCC2)cc1)c1ccc(Cl)cc1 u=% value=85.8

====

tested on: UACC-257 melanoma; experiment: NCI-60 one-dose screen, 48 h (100 = growth as untreated, 0 = no growth, -100 = all killed); details: 10 µM unless noted
About 83,000 compounds went through this panel and 20% of them were active in at least one assay; those are over-represented in the sample as a whole. Calls of active or inactive are those of the source. How the source made its calls: active means growth percent below 10; inactive means the rest.
This section presents compounds with their documented growth values.
assayMetric: growth

compound=CCN(CC)c1ccc(/C=N/NC(=O)c2ccc(S(N)(=O)=O)cc2)cc1 value="2.22% (active)"
compound="COc1ccc(C2CC(c3cccc(OCCCCOc4cccc(C5=NOC(c6ccc(OC)cc6)C5)c4)c3)=NO2)cc1 (centres undefined)" value="96.9% (inactive)"
compound=CNCCN(C)c1ccc(Nc2cc(NC3CC3)n3ncc(C#N)c3n2)cc1NC(C)=O value="8.4% (active)"
compound=CC1(C)CC[C@]2(C(=O)O)CC[C@]3(C)C(=CC[C@@H]4[C@@]5(C)CC[C@H](NOCCCN)C(C)(C)[C@@H]5CC[C@]43C)[C@@H]2C1 value="89.2% (inactive)"
compound="C=C(C=O)[C@@H]1CC[C@]2(C(=O)O)CC[C@]3(C)C(CC[C@@H]4[C@@](C)(CCC#N)[C@H](C(=C)C=O)CC[C@]43C)[C@@H]12 (some centres undefined)" value="12.4% (inactive)"
compound=C#CCN(C)CCCOc1ccc(NCc2ccc(/C=C/C(=O)NO)cc2)cc1Cl value="21% (inactive)"
compound=O=S(=O)(NCCCNc1nccc(-c2[nH]c(-c3ccccc3)nc2-c2ccc(F)c(O)c2)n1)c1ccccc1 value="22.4% (inactive)"
compound=O=C(COc1ccc(/C=C2\C(=O)Nc3ccc(Cl)cc32)cc1)Nc1ccc(Cl)cc1 value="82.5% (inactive)"
compound=O=C(CCCCCCNC(=O)C(O)(O)C(F)(F)F)Nc1ccc(Cl)cc1 value="31% (inactive)"
